- test target: Prostaglandin F2-alpha receptor (Mus musculus)
- assay details: Allosteric modulator activity at prostaglandin F2alpha receptor in CD-1 mouse myometrial strips assessed as inhibition of PGF2alpha- induced contraction at 1 uM pre-incubated for 20 mins followed by PGF2alpha challenge
Activity calls are given as the source filed them. The calls are words filed in the database; no cut-off is given here.
Choose the fitting class; nothing outside active, inactive is accepted.

mol smiles | cat
COc1ccc(C2=C3CC[C@@H](C(=O)N[C@@H](Cc4cccnc4)C(=O)N[C@H](CC(=O)O)Cc4ccccc4)N3C(=O)[C@@H](NC(=O)Cc3ccccc3)C2)cc1 | inactive
O=C(O)C[C@H](Cc1ccccc1)NC(=O)[C@H](Cc1cccnc1)NC(=O)[C@@H]1C[C@H](O)CN1C(=O)NNC(=O)Cc1ccccc1 | inactive
O=C(O)C[C@H](Cc1ccccc1)NC(=O)[C@H](Cc1cccnc1)NC(=O)[C@@H]1C[C@H](F)CN1C(=O)N(Cc1ccccc1)NC(=O)Cc1ccccc1 | inactive

Task: What did this assay record as the result for O=C(O)C[C@H](Cc1ccccc1)NC(=O)[C@H](Cc1cccnc1)NC(=O)[C@@H]1CCC2=CC[C@H](NC(=O)Cc3ccccc3)C(=O)N21 ?
Output: inactive

Task: Note, next up: Cc1ccc(CN(NC(=O)Cc2ccccc2)C(=O)N2CCC[C@H]2C(=O)N[C@@H](Cc2cccnc2)C(=O)N[C@H](CC(=O)O)Cc2ccccc2)cc1
Output: inactive

Task: Note, next up: C#CCN(NC(=O)Cc1ccccc1)C(=O)N1C[C@H](O)C[C@H]1C(=O)N[C@@H](Cc1cccnc1)C(=O)N[C@H](CC(=O)O)Cc1ccccc1
Output: active
